Sourced from PubChem BioAssay (Tox21)

Target: Retinoic acid receptor RXR-alpha (Homo sapiens)
Experiment: qHTS assay to identify small molecule agonists of the RXR signaling pathway (AID 1159527); also: nearly all actives have a fitted effect of over 35% in size
Settings: HEK293T RXRa-UAS-bla, beta-lactamase ratio, 16 h; series mostly up to 76.8 µM
Records with an inconclusive call do not appear. Active and inactive are the calls of the source. Calls follow the shape of the full dose curve.
Just give me one of these, please: class 1 for active, class 0 for inactive

Solved entries:
# Smiles string, Class
records = [
    ("CC12CCC(CC1)C(C)(C)O2", "class 0"),
    ("CCCCC1(COC(=O)CCC(=O)O)C(=O)N(c2ccccc2)N(c2ccccc2)C1=O", "class 0"),
    ("CCCC[P+](CCCC)(CCCC)CCCC", "class 0"),
    ("CCOC(N)=O", "class 0"),
    ("O=C(O)c1ccccc1", "class 0"),
]

I would be grateful if you could indicate the recorded call for `C=CCc1ccc(O)c(OC)c1` .
class 0

I would be grateful if you could indicate the recorded call for `O=c1[nH]cc(F)c(=O)[nH]1` .
class 1

I would be grateful if you could indicate the recorded call for `CCCCOC(=O)c1ccc(O)cc1` .
class 0

I would be grateful if you could indicate the recorded call for `Nc1ccc(O)c([N+](=O)[O-])c1` .
class 1
